Test system: field corn (Zea mays L., var. Dekalb 535, CORN)
Test Details: Pre-emerge test, crop damage field corn
Type: in vivo
Reported Conditions: pre-emerge, 250 g ai/ha, 14 days after application, rating scale 0-100 (0 no damage, 100 complete death)
Simple rule here: Pre-emerge crop damage CORN (phytotoxicity rating) less than 80 is true (1), otherwise false (0).

{"columns": ["Molecule", "Assigned Label"],
 "data": [
  ["CC1Oc2cc(F)c(-c3nn(C)c(C(F)(F)F)c3Cl)c3c2N(C1=O)C(C)C(=O)N3 (mixture of isomers) [1-51]", "true (1)"],
  ["CC1Oc2cc(F)c(-c3nn(C)c(C(F)(F)F)c3Cl)c3c2N(C1=O)C(C(C)C)C(=O)N3 (mixture of isomers) [1-53]", "true (1)"],
  ["CC1Oc2cc(F)c(-c3nn(C)c(OC(F)F)c3Cl)c3c2N(C1=O)C(C)C(=O)N3 (mixture of isomers) [1-57]", "true (1)"],
  ["O=C1CN2C(=O)COc3cc(F)c(-c4ncc(C(F)(F)F)cc4Cl)c(c32)N1 [1-63]", "false (0)"],
  ["CCC1C(=O)Nc2c3c(cc(F)c2-n2nc(C)n(C(F)F)c2=O)OCC(=O)N31 (stereo not shown) [1-75]", "false (0)"],
  ["CC1C(=O)Nc2c3c(cc(F)c2-n2c(=O)cc(C(F)(F)F)n(C)c2=O)OCC(=O)N31 (stereo not shown) [1-2]", "false (0)"],
  ["Cn1nc(-c2c(F)cc3c4c2NC(=O)CN4C(=O)C(C)(C)O3)c(Cl)c1OC(F)F [1-59]", "true (1)"],
  ["CC1Oc2cc(F)c(-c3nn(C)c(C(F)(F)F)c3Cl)c3c2N(C1=O)C(C)C(=O)N3 (mixture of isomers) [1-50]", "false (0)"],
  ["CCC1C(=O)Nc2c(-c3ncc(C(F)(F)F)cc3Cl)c(F)cc3c2N1C(=O)CO3 (stereo not shown) [1-66]", "false (0)"],
  ["Cn1nc(-c2c(F)cc3c4c2NC(=O)C(Cl)N4C(=O)CO3)c(Cl)c1OC(F)F (stereo not shown) [1-79]", "true (1)"],
  ["O=C1CN2C(=O)COc3cc(F)c(N4C(=O)C5=C(CCCC5)C4=O)c(c32)N1 [1-37]", "true (1)"],
  ["Cn1nc(-c2c(F)cc3c4c2NC(=O)C(C)(C)N4C(=O)CO3)c(Cl)c1OC(F)F [1-27]", "true (1)"],
  ["CC(C)C1C(=O)Nc2c(N3C(=O)C4=C(CCCC4)C3=O)c(F)cc3c2N1C(=O)CO3 (stereo not shown) [1-78]", "true (1)"],
  ["CC1Oc2cc(F)c(-c3nn(C)c(OC(F)F)c3Cl)c3c2N(CC(=O)N3)C1=O (stereo not shown) [1-56]", "true (1)"],
  ["Cn1c(C(F)(F)F)cc(=O)n(-c2c(F)cc3c4c2NC(=O)CN4C(=O)CO3)c1=O [1-1]", "false (0)"]
]}
